# ASSAY_INFO: in vitro
# Design: Viability of infected HeLa host cells, resazurin conversion, bulk resorufin fluorescence relative to DMSO
# MEASUREMENT_SETUP: human, hela cells; bulk resorufin, mean of 2
EXPERIMENTAL_READOUT: viability at 28.5 h, 5 µM (%)
Please give a number only; it is taken to be in %.

// query Return value of viability at 28.5 h, 5 µM for input `Cc1cc(C)c2c(N)c(C(=O)Nc3ccc(Br)cc3)sc2n1` , no commentary.
// result 98.9

// query Return value of viability at 28.5 h, 5 µM for input `O=S(=O)(Nc1ccc(C(F)(F)F)cc1Cl)c1cc(Br)c(Cl)s1` , no commentary.
// result 93.1

// query Return value of viability at 28.5 h, 5 µM for input NC(=O)c1[nH]nc(C2OC(CO)C(O)C2O)c1O (centres unmarked) , no commentary.
// result 92.1

// query Return value of viability at 28.5 h, 5 µM for input `Cc1cc(NS(=O)(=O)c2ccc(NC(=S)NC(=O)C(C)(C)C)cc2)no1` , no commentary.
// result 96.5

// query Return value of viability at 28.5 h, 5 µM for input `C1=C(CCNCCc2ccccc2)c2ccccc2C12CCCC2` , no commentary.
// result 89.8

---

# ASSAY_INFO: in vitro
# MEASUREMENT_SETUP: human, hela cells, % viability
Here, each record is paired with measured viability at 28.5 h, 10 µM data.
Please give a number only; it is taken to be in %.

Solved cases below.
CC(=O)c1ccc(-c2nc(-c3ccc(Cl)cc3)cnc2N)cc1 [CBK064097] = 89.6
O=C(NCc1ccccn1)Nc1cccc(Cl)c1 [CBK058569] = 95.9
Nc1cccc(-c2cn(C[C@H]3CC4CCN3C[C@@H]4C(=O)NCc3cccnc3)nn2)c1 (stereo partly drawn) [CBK289088] = 84.3
Cc1ccc(C)c2[nH]c(=O)c(CN(Cc3cccnc3)C(=O)NC3CCCCC3)cc12 [CBK068091] = 98.2
O=C(NCN1CCN(c2ccc([N+](=O)[O-])cc2)CC1)c1cccnc1 [CBK264909] = 106

// query Return value of viability at 28.5 h, 10 µM for input COc1ccc(Br)c(C(=O)N(C)Cc2cnn(C)c2)c1 [CBK305142] , no commentary.
// result 97.7

// query Return value of viability at 28.5 h, 10 µM for input COc1cccc(CN2CCN(C(=O)N3CCCC3)[C@@H](C)C2)c1 [CBK285491] , no commentary.
// result 107

// query Return value of viability at 28.5 h, 10 µM for input Cc1oc(NC(=O)CN2CCN(c3ncccn3)CC2)c(C#N)c1C [CBK305569] , no commentary.
// result 94.6

// query Return value of viability at 28.5 h, 10 µM for input Cc1ccc(CN(CCCn2ccnc2)Cc2ccccc2O)o1 [CBK283189] , no commentary.
// result 99.8

---

# ASSAY_INFO: in vitro
# MEASUREMENT_SETUP: human, hela cells, % viability
Here, each record is paired with measured viability at 28.5 h, 10 µM data.
Give me the value, and tack the unit on after it.

// query Return value of viability at 28.5 h, 10 µM for input COc1ccc(C2CC(c3ccccc3)=NN2c2ccc(S(N)(=O)=O)cc2)cc1OC (stereo not shown) , no commentary.
// result 107%

// query Return value of viability at 28.5 h, 10 µM for input `COC(=O)CCc1ccc(S(=O)(=O)N2CCN(Cc3csc(-c4ccccc4)n3)CC2)cc1` , no commentary.
// result 91.8%

// query Return value of viability at 28.5 h, 10 µM for input `CCOC(=O)c1ccc(-c2ccc(C(=O)Nc3ccc(-c4nc5ccccc5o4)c(O)c3)o2)cc1` , no commentary.
// result 99%

// query Return value of viability at 28.5 h, 10 µM for input `Nc1ccc(-c2ccccc2)c2ccccc12` , no commentary.
// result 97.1%

// query Return value of viability at 28.5 h, 10 µM for input `O=C(O)c1ccc(NC(=O)c2cc(-n3cnnc3)ccc2Cl)cc1` , no commentary.
// result 111%

// query Return value of viability at 28.5 h, 10 µM for input COc1ccc(C)cc1S(=O)(=O)Nc1cc(N2CCN(C(C)C)CC2)c2occc2c1 [CBK073625C] , no commentary.
// result 92%

// query Return value of viability at 28.5 h, 10 µM for input `COc1ccc2sc(N(Cc3cccnc3)C(=O)CCc3ccccc3)nc2c1` , no commentary.
// result 81.2%

// query Return value of viability at 28.5 h, 10 µM for input `Cn1cc(CCNC(=O)Nc2ccc(N3CCCCC3)nc2)cn1` , no commentary.
// result 95.2%

// query Return value of viability at 28.5 h, 10 µM for input `O=C(NC1CCN(C(=O)CCn2ccc3ccncc32)CC1)C1CC1` , no commentary.
// result 78.3%
